So I've got a bunch of compounds here, and I need their pKd values.
# System: CDK11
# Construct: gene CDK19
Remember the convention: pKd equals -log10 of concentration in molar.

// sample "Cc1cnc(N)c(/C=C/c2cncc(C(=O)NCCc3ccc(Cl)cc3Cl)c2)c1.Cl" , its pKd was 6.39

// sample "Nc1ncnc2occ(-c3ccc4c(c3)CCN4C(=O)Cc3cc(F)ccc3F)c12" , its pKd was 5.96

###

So I've got a bunch of molecules here, and I need their %Inh values.
# Test system: ERK8
# Construct: gene MAPK15
# reported_conditions: concentration: 1 μM, replicates: in singlicate; n = 1
Write your answer as a measured quantity: the number, then the unit.

// sample COc1ccc(Nc2nccc(N3CCC(NC(=O)C(C)c4ccc(Cl)cc4)C3)n2)cc1 (stereo not drawn) , its %Inh was 44%

// sample "COc1cccc(C2=C(Nc3cc(Cl)c(O)c(Cl)c3)C(=O)NC2=O)c1" , its %Inh was 37%

// sample "CC(=O)c1c(C)c2cnc(Nc3ccc(N4CCNCC4)cn3)nc2n(C2CCCC2)c1=O" , its %Inh was 17%

###

# Test system: CDK11
# Construct: gene CDK19
# reported_conditions: concentration: 1 μM, replicates: in singlicate; n = 1
measured_parameter: %Inh (%)
Number in %, nothing else.

// sample "Cn1cncc1-c1cc2c(Nc3ccc(OCc4ccccc4)cc3)ncnc2cn1" , its %Inh was 47

// sample "O=C(Nc1n[nH]c2cc(-c3ccsc3)ccc12)C1CC1" , its %Inh was 5

// sample COC(=O)c1cccc(NC(=O)NC2CCN(c3ccnc(Nc4ccc(OC)cc4)n3)C2)c1 (stereo not shown) , its %Inh was 76

// sample "Cc1ccc(NC(=O)Nc2ccc(Cl)c(C(F)(F)F)c2)cc1-c1ccc(C(=O)Nc2ccncc2)cc1" , its %Inh was 11

###

# Tested on: PAK2
# reported_conditions: concentration: 1 μM, replicates: in singlicate; n = 1
measured_parameter: %Inh (%)
Number in %, nothing else.

// sample "Cc1cnc(N)c(/C=C/c2cncc(C(=O)NCCc3ccc(Cl)cc3Cl)c2)c1.Cl" , its %Inh was 10

// sample "CC(=O)c1c(C)c2cnc(Nc3ccn(C)n3)nc2n(C2CCCC2)c1=O" , its %Inh was 0

// sample "Nc1cccc(-c2ccc3c(N)n[nH]c3c2)n1" , its %Inh was 5

// sample "Nc1nccc(-c2c(-c3ccc(F)cc3)ncn2C2CCN(Cc3ccccc3)CC2)n1" , its %Inh was 19

// sample COc1cccc(CNC(=O)NC2CCN(c3ccnc(Nc4ccc(F)cc4)n3)C2)c1 (centres unmarked) , its %Inh was 0

###

# Test system: MELK
# reported_conditions: concentration: 1 μM, replicates: in singlicate; n = 1
So I've got a bunch of molecules here, and I need their %Inh values.
Number in %, nothing else.

Lab note: molecule "Cc1c(Cn2c(C)c(C)n3c(=O)cc(N4CCOCC4)nc23)cccc1C(F)(F)F" tested on MELK; recorded %Inh was 1

Lab note: molecule COC(=O)c1cccc(NC(=O)NC2CCN(c3ccnc(Nc4ccc(OC)cc4)n3)C2)c1 (stereo not drawn) tested on MELK; recorded %Inh was 0

Lab note: molecule "Fc1ccc(-c2nc[nH]c2-c2ccncc2)cc1" tested on MELK; recorded %Inh was 0

Lab note: molecule "CS(=O)(=O)Cc1ccc(Nc2nccc(-c3c(-c4cccc(NC(=O)C5CCCCC5)c4)nn4ncccc34)n2)cc1" tested on MELK; recorded %Inh was 0

Lab note: molecule "COc1ccc2cc(-c3nc(-c4ccccc4C(C)C)[nH]c3-c3ccncc3)ccc2c1" tested on MELK; recorded %Inh was 26

Lab note: molecule "NS(=O)(=O)c1cccc(N/C=C2\C(=O)Nc3ccc(S(=O)(=O)Cc4c(Cl)cccc4Cl)cc32)c1" tested on MELK; recorded %Inh was 0

Lab note: molecule "Cc1ccc(NC(=O)c2ccc(Cl)cc2)cc1-c1ccc(C(=O)Nc2ccncc2)cc1" tested on MELK; recorded %Inh was 0

Lab note: molecule COc1ccc(Nc2nccc(N3CCC(NC(=O)C(C)c4ccc(Cl)cc4)C3)n2)cc1 (stereo not drawn) tested on MELK; recorded %Inh was 7

Lab note: molecule "Cc1ccc(-c2nc(Nc3ccncc3)c3ccccc3n2)s1" tested on MELK; recorded %Inh was 0
